target: Stb4 (UniProt P50104); assay: PBM E-score (8-mer binding enrichment) (E-score (-0.5 to 0.5)); higher = stronger / more preferred TF binding; settings: protein concentration: 200 nM; construct: GST-DNA-binding domain
Sequence (P50104 whole entry, the tested form may be a part): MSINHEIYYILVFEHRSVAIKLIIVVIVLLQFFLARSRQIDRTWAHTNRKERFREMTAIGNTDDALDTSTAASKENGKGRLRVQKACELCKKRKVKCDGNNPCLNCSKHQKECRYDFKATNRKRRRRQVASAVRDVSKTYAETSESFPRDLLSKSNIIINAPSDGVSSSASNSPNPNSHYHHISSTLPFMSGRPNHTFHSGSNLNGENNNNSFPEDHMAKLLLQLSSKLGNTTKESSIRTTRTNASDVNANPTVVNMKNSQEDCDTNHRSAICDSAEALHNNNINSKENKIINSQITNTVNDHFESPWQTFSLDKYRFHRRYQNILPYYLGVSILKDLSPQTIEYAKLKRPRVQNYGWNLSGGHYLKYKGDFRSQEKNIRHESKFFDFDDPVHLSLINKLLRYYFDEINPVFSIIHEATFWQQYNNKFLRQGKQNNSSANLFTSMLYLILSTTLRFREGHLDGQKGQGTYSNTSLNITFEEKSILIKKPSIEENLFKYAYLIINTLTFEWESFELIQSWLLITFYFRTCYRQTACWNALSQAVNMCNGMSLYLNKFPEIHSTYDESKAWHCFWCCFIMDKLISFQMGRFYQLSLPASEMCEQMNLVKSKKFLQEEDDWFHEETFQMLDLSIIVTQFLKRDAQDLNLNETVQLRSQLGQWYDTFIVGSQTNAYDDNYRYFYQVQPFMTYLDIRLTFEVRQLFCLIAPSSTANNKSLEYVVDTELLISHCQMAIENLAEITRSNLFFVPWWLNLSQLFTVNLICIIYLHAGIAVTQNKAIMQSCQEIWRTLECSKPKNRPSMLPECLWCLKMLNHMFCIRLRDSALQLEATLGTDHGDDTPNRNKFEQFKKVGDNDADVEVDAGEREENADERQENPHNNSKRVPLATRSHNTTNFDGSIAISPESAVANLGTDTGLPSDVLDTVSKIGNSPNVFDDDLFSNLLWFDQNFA
Whole data set: some 33,000 sequences, median “E-score (-0.5 to 0.5)” near -0.056, cut for the highest 2% near 0.38. Many of the other results were omitted from the sample, so the highest values are more common in it than they were.
Is PBM E-score at least 0.04? Then yes. If not, no.

CHAIN_SEQUENCE	LABEL_CLASS
CCGCCGAA	yes
CATTTGTA	no
ATAAGCGA	yes
ACAAGGCT	no
GTTCTCGA	no
CGGAACCA	yes
AGGAACCG	yes
CGGAAAGC	yes
GCCCGAGC	yes
TCCGAGCA	yes
GCCGAGCA	yes
CGAGGATA	no
TCTGACCA	no
CCCATAGC	no
AATCTTGC	no
GACCCGAC	yes
TATAGCCA	no
ATCAGCAC	no
ACGAGCTC	no
GCCCGAGA	yes
CCTGGTCC	no
AATGATTG	no
GAGCAGGC	no
CGTTGGAG	no
AGGATGGA	yes
GACCCGCC	yes
GAGCATCA	no
CGCCCGAA	yes
ACCGAGCA	yes
CGGAACCC	yes
CGGTAACA	yes
CCAAAGTA	yes
TACCCCGA	yes
CCGAACCC	yes
GACGAGCC	no
ATTGGCTG	no
CAGAGATA	no
CGGAAAGA	yes
CTCCCGAG	yes
CAGCTAGC	no
AGCCATTA	yes
CATACAGA	no
CCCCGAGC	yes
ACGCCGAA	yes
CTGAGCTC	no
ATATAGCC	yes
CCTAGGGC	no
CTGAAACA	no
GCGCCGAC	yes
ACGAGCTA	no
AGCCCGAA	yes
ACCAATCT	no
GACCCGAA	yes
GACCCGGA	yes
CACCCAGC	no
ATCTTGTA	no
AAGCCAAG	no
CTAATCGA	no
CGGAACCG	yes
CCGAGCTA	yes
CCTAGTAG	no
CCAGTGCA	no
AAATGGGG	no
TGCGAGCA	no
TACCCGAA	yes
ACTCCTCT	no
CGCGAGCC	yes
CGCCCGAG	yes
AATCTATC	no
CTCCCGAC	yes
GTGAAAGA	yes
GCGAGCTA	no
CAGAAAGC	no
CGGGTAAC	yes
AGATCTAG	no
ACAGTCAG	no
TCTTCGCA	no
CCGAACCA	yes
AATCAATA	no
GCCCCGAA	yes
GACCTGGA	no
CCAGACTA	no
ACGTGATA	no
ATGGCTAA	no
ATCCCGAA	yes
CCAGTCCG	yes
GTGTGCAA	no
AGGCAGAC	no
ACGCCGAG	yes
ATAGCTTA	no
